Target Desc: T1, human Claudin 18.2 (CLDN18.2) (human, UniProt P56856-2 1-261)
T1 construct: whole, on cells; recombinantly expressed on CHO, HEK293, NCI-N87, NUGC4 or PANC-1 cells; also called CHO-CLDN18.2
Method Description: FACS on CHO-CLDN18.2 cells
Listing of recorded EC50 by entry.
Remember to follow the number with its unit.

Binder: 413H9F8-cp5 (antibody, V domains shown, humanized IgG; constant regions not specified) VH: DVQLVESGGGLVQPGGSLRLSCAASGFTFSSFGMHWVRQAPGKGLEWVAYISSGSSPIYYVDKLKGRFTISRDNAKNSLYLQMNSLRAEDTAVYYCARAGYAVRNALDYWGQGTLVTVSS VL: DIVMTQSPPTLSLSPGERVTLSCKSSQSLLNVGNQKNYLAWYQQKPGQAPRLLIYGASTRESGIPDRFSGSGSGTDFTLTISSLQPEDFAVYYCQNDLFYPLTFGGGTKVEIK
EC50: 2.54 nM
--
Binder: 413H9F8-cp8 (antibody, V domains shown, humanized IgG; constant regions not specified) VH: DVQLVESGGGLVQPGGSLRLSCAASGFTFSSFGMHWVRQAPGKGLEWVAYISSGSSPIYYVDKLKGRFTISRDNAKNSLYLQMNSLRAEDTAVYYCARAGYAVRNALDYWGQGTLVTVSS VL: DIVMTQSPPTLSLSPGERVTLSCKSSQSLLNVGNQKNYLAWYQQKPGQAPKLLIYGASTRESGIPDRFSGSGSGTDFTLTISSLQPEDFAVYYCQNDLFYPLTFGGGTKVEIK
EC50: 2.72 nM

q: Can you look up the measured EC50 of 413H9F8-cp2 (antibody, V domains shown, humanized IgG; constant regions not specified) VH: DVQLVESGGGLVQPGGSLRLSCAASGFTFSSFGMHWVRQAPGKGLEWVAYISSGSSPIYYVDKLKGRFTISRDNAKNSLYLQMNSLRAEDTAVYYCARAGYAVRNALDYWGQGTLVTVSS VL: EIVMTQSPPTLSLSPGERVTLSCKSSQSLLNVGNQKNYLAWYQQKPGQAPRLLIYGASTRESGIPARFSGSGSGTDFTLTISSLQPEDFAVYYCQNDLFYPLTFGGGTKVEIK for me?
a: 1.99 nM
